# Assay method text: physchem
# Measurement setup: 22 °C, pH 6.2, water
Please use True whenever solubility is not below 200 µM, and False whenever it is.

Molecule | Answer label
C=CCc1cc(OC)c2c(c1)OCO2 [Myristicin] | False
C=CCc1ccc2c(c1)OCO2 [Safrole] | True

IN: Textbook exercise: given the entry C=CCc1cc2c(c(OC)c1OC)OCO2 [Dillapiol] , state whether its solubility is greater than or equal to 200 µM.
OUT: True

IN: Proceed to CC1CCC(C(C)C)C(O)C1 (stereo not drawn) [Menthol]
OUT: True

IN: Proceed to C=CC(C)(O)CCC=C(C)C (stereo not drawn) [Linalool]
OUT: True

IN: Proceed to C=CCc1ccc(O)c(OC)c1 [Eugenol, 4-allyl-2-methoxyphenol]
OUT: True

* * *

In this section, each of the compounds is paired with its reported n.
# Assay method text: Formation of inclusion complexes with MCD (UV spectroscopy, Hill linearization)
# Type: physicochemical
# Measurement setup: MCD; Xaq + n MCDaq ⇌ X·nMCDaq; 5 mM sodium phosphate buffer pH 6.2, 22 °C
Number only, please.

Examples with their reported n follow.
Compound | n
C=CCc1cc(OC)c2c(c1OC)OCO2 [Apiol] | 1.6
CC1CCC(C(C)C)C(O)C1 (centres unmarked) [Menthol] | 1.1

IN: Entry under review: C=CCc1cc2c(c(OC)c1OC)OCO2 [Dillapiol] . Reported n?
OUT: 1.3

IN: Proceed to C=CCc1ccc2c(c1)OCO2 [Safrole]
OUT: 1.5

IN: Proceed to C=CCc1ccc(O)c(OC)c1 [Eugenol, 4-allyl-2-methoxyphenol]
OUT: 1.32

IN: Proceed to C=CCc1cc(OC)c2c(c1)OCO2 [Myristicin]
OUT: 0.67

IN: Proceed to C=CC(C)(O)CCC=C(C)C (centres unmarked) [Linalool]
OUT: 1.2

IN: Proceed to C=CCc1cc(OC)c(OC)c(OC)c1OC [Allyltetramethoxybenzene]
OUT: 1.74

* * *

# Assay method text: Formation of inclusion complexes with MCD (UV spectroscopy, Hill linearization)
# Type: physicochemical
# Measurement setup: MCD; C(MCD) = 0.01 M; pH 6.2, 22 °C
# Experimental: To optimize the system composition, similar experiments were carried out on the formation of EG and apiol inclusion complexes with HPCD (Figure S1). […] According to these changes, the dissociation constants of the EG–HPCD and apiol–HPCD complexes (Figure S2) were calculated by Hill’s equation (Table 1). […]
Please use label 1 whenever EE, % is not below 90%, and label 0 whenever it is.

Recorded results for 3 molecules are shown here.
Molecule | Answer label
C=CCc1cc(OC)c(OC)c(OC)c1OC [Allyltetramethoxybenzene] | label 0
C=CC(C)(O)CCC=C(C)C (centres unmarked) [Linalool] | label 0
C=CCc1ccc2c(c1)OCO2 [Safrole] | label 1

IN: Textbook exercise: given the entry C=CCc1cc(OC)c2c(c1OC)OCO2 [Apiol] , state whether its EE, % is greater than or equal to 90%.
OUT: label 0

IN: Proceed to C=CCc1cc(OC)c2c(c1)OCO2 [Myristicin]
OUT: label 1

IN: Proceed to C=CCc1ccc(O)c(OC)c1 [Eugenol, 4-allyl-2-methoxyphenol]
OUT: label 0

IN: Proceed to C=CCc1cc2c(c(OC)c1OC)OCO2 [Dillapiol]
OUT: label 0

* * *

# Tested on: E. coli
# Assay method text: Synergy of adjuvant-MCD with Lev-MCD, growth inhibition zones in agar
# Format: cell-based, Escherichia coli
# Measurement setup: E. coli; CLev 0.15 μg/mL; Lev-MCD + X-MCD (1:2); ±0.5
In this section, each of the molecules is paired with its reported D, diameter of bacterial inhibition zone surrounding Lev–MCD with APAB-MCD.
Supply the numeric figure in mm, leaving out any unit text.

Molecule | Reported
C=CCc1ccc2c(c1)OCO2 | 14.5
C=CCc1ccc(O)c(OC)c1 | 15
C=CCc1cc(OC)c2c(c1OC)OCO2 | 14

Now turn to the next molecule.
IN: Entry under review: CC1CCC(C(C)C)C(O)C1 (stereo not shown) . Reported D, diameter of bacterial inhibition zone surrounding Lev–MCD with APAB-MCD?
OUT: 14
